test: Human HepG2 cell viability assay in 384 well format; assay type: toxicity, cell-based; parameters: dose 125 nL, time 70.5 hour; concentration not given beside the values; conditions: HepG2 cells, read-out: Inhibition
Here the recorded cytotoxicity at 70.5 h is given for each entry.
// note: answer is a bare numeric in %

# annotated cases, reported cytotoxicity at 70.5 h shown
compound="Cn1c(=O)c2c(n3ncnc13)NC(=O)CC2c1cccc(Br)c1 (stereo unspecified)" measurement_kind="cytotoxicity at 70.5 h" result_unit=% recorded_measurement=-9.38
compound=Cc1ccc(CN2CCO[C@H]3[C@H](OCc4cccnc4)CC[C@@H]32)o1 measurement_kind="cytotoxicity at 70.5 h" result_unit=% recorded_measurement=36.8
compound=COCCCN(C)S(=O)(=O)c1ccc(Cl)cc1C#N measurement_kind="cytotoxicity at 70.5 h" result_unit=% recorded_measurement=-14.2
compound=CN1CCC(Oc2ccc(NC(=O)c3cccc(Cl)c3)cc2)CC1 measurement_kind="cytotoxicity at 70.5 h" result_unit=% recorded_measurement=-3.56

Q. If you can, please state the reported cytotoxicity at 70.5 h value of `CCCN(C(=O)CN1CCN(CCO)CC1)C1=CCCCC1` .
A. -0.879

Q. Endpoint output: cytotoxicity at 70.5 h of `Cc1cnc(N2CC[C@@H]3O[C@@H](COCC(=O)N(C)C)CC[C@@H]32)nc1` . Value?
A. -99.7

Q. For the compound O=C1CC2(CCN(c3nncs3)C2)CN1c1ccc2c(c1)OCCO2 (stereo unspecified) , what cytotoxicity at 70.5 h is on record?
A. -1.06

---

test: Human HepG2 cell viability assay in 384 well format; assay type: toxicity, cell-based; design: dose 125 nL, time 70.5 hour; concentration not given beside the values; conditions: HepG2 cells, read-out: Inhibition
Measurement Kind: cytotoxicity at 70.5 h (%)
Respond numerically; units are % and should not be typed.

These solved cases illustrate the format of a correct answer.
molecule=Cc1oc(-c2ccco2)nc1CN1CCc2cncnc2C1 recorded_measurement=-1.22
molecule=Cc1ccc(-c2nc3cc(S(=O)(=O)N4CCCC4)ccc3n2C)o1 recorded_measurement=-11.7
molecule="CN(C)C(=O)c1cccc(NC(=O)CN2CCCCC2C2OCCO2)c1 (configuration not stated)" recorded_measurement=-5.7
molecule="CC(CNCc1ccc(Cl)c(Cl)c1)Oc1ccccn1 (configuration not stated)" recorded_measurement=-1.69
molecule="CCC(CO)NCc1ccc(-c2ccc(Br)cc2)o1 (configuration not stated)" recorded_measurement=0.103
molecule="OC(CN1CCN(CC(F)F)CC1)c1ccc(Br)cc1 (configuration not stated)" recorded_measurement=1.14
molecule=O=C1C[C@H]2CC[C@@H](CN1)N2c1cc(-c2ccccc2F)nc2ccnn12 recorded_measurement=-4
molecule=CN(Cc1cccnc1N)Cc1cccc2ncccc12 recorded_measurement=-15.9
molecule=CC(=O)N(C)Cc1cccc(NC(=O)CCCc2nc(C(C)C)no2)c1 recorded_measurement=9.44
molecule=COc1c(CNCc2ccc(S(C)(=O)=O)cc2)c(C)nn1C recorded_measurement=0.0381

Q. What does the data say about its cytotoxicity at 70.5 h? Entry: `CN(Cc1ccco1)Cc1cncc2c1CCN(c1ncccn1)C2`
A. 7.69

Q. What cytotoxicity at 70.5 h value was documented for this molecule, COc1cc(CN2CCCC(Nc3cccc(F)c3)C2)cc(OC)c1O (configuration not stated) ?
A. -5.97
